The values you see were collected from patent US20170355757A1.

target: T1, human C5 R885C-mmh (human, UniProt P01031 19-1676); assay: SPR, mAb captured via anti-hFc, 37C
T1 construct: also called human C5 variant R885C
// classify: if (t1/2 < 10 min) t else f

Answered examples (4):
BINDER	ASSIGNED_CATEGORY
H4H12175P (antibody, human IgG4, V domains shown, Human IgG4 Fc with S108P hinge mutation (H4H)) VH: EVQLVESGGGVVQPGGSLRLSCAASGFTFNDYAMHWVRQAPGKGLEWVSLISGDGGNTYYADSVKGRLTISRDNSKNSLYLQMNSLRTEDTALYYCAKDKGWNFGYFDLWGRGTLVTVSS VL: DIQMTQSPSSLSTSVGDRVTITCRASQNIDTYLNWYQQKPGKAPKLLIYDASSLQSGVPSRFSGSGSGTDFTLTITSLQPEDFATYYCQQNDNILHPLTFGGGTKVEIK	t
H4H12170P (antibody, human IgG4, V domains shown, Human IgG4 Fc with S108P hinge mutation (H4H)) VH: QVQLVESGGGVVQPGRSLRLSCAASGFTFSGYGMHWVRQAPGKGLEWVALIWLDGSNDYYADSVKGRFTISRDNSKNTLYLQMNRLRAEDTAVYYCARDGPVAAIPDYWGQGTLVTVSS VL: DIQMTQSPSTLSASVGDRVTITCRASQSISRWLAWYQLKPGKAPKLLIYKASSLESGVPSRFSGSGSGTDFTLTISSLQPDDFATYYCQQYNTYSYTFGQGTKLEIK	f
H4H12164P (antibody, human IgG4, V domains shown, Human IgG4 Fc with S108P hinge mutation (H4H)) VH: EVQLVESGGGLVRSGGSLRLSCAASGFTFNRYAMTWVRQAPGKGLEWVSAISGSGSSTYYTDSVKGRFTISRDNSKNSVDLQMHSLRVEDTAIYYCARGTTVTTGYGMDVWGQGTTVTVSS VL: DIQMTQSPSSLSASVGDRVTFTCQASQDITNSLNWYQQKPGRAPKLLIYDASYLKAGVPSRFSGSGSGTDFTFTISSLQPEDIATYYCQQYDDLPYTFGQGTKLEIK	f
H4H11686N (antibody, V domains shown, also called H2M11686N) VH: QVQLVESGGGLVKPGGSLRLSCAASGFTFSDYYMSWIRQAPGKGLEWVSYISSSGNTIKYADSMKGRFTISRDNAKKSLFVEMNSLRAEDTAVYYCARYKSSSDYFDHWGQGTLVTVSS VL: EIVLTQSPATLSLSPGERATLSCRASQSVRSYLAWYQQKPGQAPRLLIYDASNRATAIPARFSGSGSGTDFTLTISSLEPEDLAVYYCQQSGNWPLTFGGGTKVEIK	f

INPUT: In plain terms, does H4H12159P (antibody, human IgG4, V domains shown, Human IgG4 Fc with S108P hinge mutation (H4H)) VH: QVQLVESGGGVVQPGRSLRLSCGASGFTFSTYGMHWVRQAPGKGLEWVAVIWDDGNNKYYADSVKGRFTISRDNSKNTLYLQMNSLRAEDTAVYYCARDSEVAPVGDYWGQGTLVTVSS VL: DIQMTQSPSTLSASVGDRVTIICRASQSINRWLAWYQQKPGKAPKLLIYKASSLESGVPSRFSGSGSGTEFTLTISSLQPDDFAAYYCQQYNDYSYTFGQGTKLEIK come in under 10 min for t1/2?
OUTPUT: f
